Target System: T1, Siglec15-ECD-His (human, UniProt Q6ZMC9 20-263)
T1 construct: Human Siglec15 (Uniprot Q6ZMC9) extracellular domain with 7 His, expressed in Hek293F; also called Sigle15-ECD-His protein; Siglec15-His protein
T1 sequence: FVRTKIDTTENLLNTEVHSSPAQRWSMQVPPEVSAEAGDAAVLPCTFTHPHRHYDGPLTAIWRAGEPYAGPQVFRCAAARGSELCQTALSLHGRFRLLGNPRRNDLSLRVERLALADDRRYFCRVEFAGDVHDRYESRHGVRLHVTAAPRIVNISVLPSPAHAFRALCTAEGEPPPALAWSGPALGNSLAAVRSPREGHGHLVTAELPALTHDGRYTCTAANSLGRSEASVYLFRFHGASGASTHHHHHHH
Method Notes: BLI (ForteBio), Siglec15-ECD-His on HIS1K sensor, antibody as analyte
Quantity: pKd
Units for pKd: none; it is -log10 of a concentration expressed in mol/L.

[[record]]
binder = "5G12-IgG1 control antibody (antibody, V domains shown) VH: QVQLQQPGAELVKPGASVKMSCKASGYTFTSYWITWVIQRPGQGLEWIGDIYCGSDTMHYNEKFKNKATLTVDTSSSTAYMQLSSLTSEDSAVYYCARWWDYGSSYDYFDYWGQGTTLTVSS VL: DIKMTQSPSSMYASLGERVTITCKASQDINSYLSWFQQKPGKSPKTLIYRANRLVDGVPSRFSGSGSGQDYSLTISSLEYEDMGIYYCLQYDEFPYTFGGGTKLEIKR"
quantity = "pKd"
test_result = 9.58


Attention now turns to another entry.
pKd lookup needed for 1-7F4-IgG1 human-mouse chimeric anti-Siglec15 antibody (antibody, V domains shown) VH: EVQLQQSGPELVKPGASVKMSCKASGYTFTTYVMHWVKQKPGQGLEWIGYINPYNDKTKYNEKFKGKATLTSDKSSSTAYMEVSRLTSEDSAVYYCGSGYDAMDYWGQGTSVTVSS VL: DIQMTQSPASLSVSVGETVTITCRASENIYSHLAWYQQKQGKSPQLLIYSATNLADGVPSRFNGSGSGTQYSLKINSLQSEDFGSYYCQHFWGTPWTFGGGTKLEIK , thanks.
10.22

Where do the numbers come from? From patent US20250326838A1.
